- System: fall armyworm larvae (Spodoptera frugiperda)
- protocol summary: Spodoptera frugiperda spray test
- Format: in vivo
- assay setup: in Zea mays, 168 h
value type: mortality at 100 g/ha (%)
Give bare numbers, in %.

smiles repr	value observed
C[C@H](NC(=O)c1cc(C(C)(C)C#N)cc(S(C)(=O)=O)c1)c1nc(C2CC2)nn1-c1ncc(C#N)s1	100
CC(C)c1cc(C(=O)N[C@@H](C)c2ncnn2-c2ccc(C#N)cn2)cc(C(C)(C)C#N)c1	83
C[C@H](NC(=O)c1cc(Br)cc(OC(C)(C)C#N)c1)c1ncnn1-c1cc(C#N)ncn1	100

The record that follows has no mortality at 100 g/ha shown yet.
Q) Please look up its mortality at 100 g/ha: `C[C@H](NC(=O)c1cc(OC(C)(C)C#N)cc(C2CC2)c1)c1ncnn1-c1cc(C#N)ncn1`
A) 100
